Assay: Pharmacokinetics study after separate oral administration in rats (HPLC-MS of plasma)
Format: in vivo, Sprague-Dawley rats
Settings: male, Sprague-Dawley, rat, plasma, po, 50 mg/kg, Qr group (oral Qr 50 mg/kg), rat plasma; labelled substance = analyte; individual rats No1-No5; read-out: MRT(0-t) (converted)

{"molecule": "O=c1c(O)c(-c2ccc(O)c(O)c2)oc2cc(O)cc(O)c12 [Qr, Quercetin]", "MRT last / h": 6.33}

----------
Test: Pharmacokinetics study after separate oral administration in rats (HPLC-MS of plasma)
Format: in vivo, Sprague-Dawley rats
Settings: male, Sprague-Dawley, rat, plasma, oral, 50 mg/kg, Qr group (oral Qr 50 mg/kg), 240 min, individual rats NO. 1-5; read-out: Plasma concentrations

{"compound": "O=c1c(O)c(-c2ccc(O)c(O)c2)oc2cc(O)cc(O)c12 [Qr, Quercetin]", "concentration at 240 min / µg/mL": 2.59}

----------
Assay: Pharmacokinetics study after separate oral administration in rats (HPLC-MS of plasma)
Format: in vivo, Sprague-Dawley rats
Settings: male, Sprague-Dawley, rat, plasma, po, 50 mg/kg, QG group (oral QG 50 mg/kg), rat plasma; labelled substance = analyte; individual rats No1-No5; read-out: Tmax (converted)

{"smiles entry": "O=c1c(O)c(-c2ccc(O)c(O)c2)oc2cc(O)cc(O)c12", "Tmax (h)": 4}
